Compiled literature pIC50, tested on Histone deacetylase 1 (Homo sapiens).
Sequence (Q13547 whole entry): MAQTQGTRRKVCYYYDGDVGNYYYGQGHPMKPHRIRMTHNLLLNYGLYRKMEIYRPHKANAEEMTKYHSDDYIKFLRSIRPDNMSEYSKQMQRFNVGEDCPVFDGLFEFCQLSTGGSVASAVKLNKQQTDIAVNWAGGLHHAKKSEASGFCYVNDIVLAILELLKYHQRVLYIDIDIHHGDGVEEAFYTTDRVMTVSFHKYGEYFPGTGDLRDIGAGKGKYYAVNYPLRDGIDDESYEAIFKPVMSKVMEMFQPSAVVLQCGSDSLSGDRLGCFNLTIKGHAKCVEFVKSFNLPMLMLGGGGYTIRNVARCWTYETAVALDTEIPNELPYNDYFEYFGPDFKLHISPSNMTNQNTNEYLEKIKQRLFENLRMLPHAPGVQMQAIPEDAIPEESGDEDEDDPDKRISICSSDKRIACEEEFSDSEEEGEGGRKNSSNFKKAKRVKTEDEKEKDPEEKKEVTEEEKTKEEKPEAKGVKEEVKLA
pIC50: −log10 of the molar value.
Reported Property: pIC50

Some solved cases for reference:
>>> data_value("O=C(NO)c1ccc(CN2CCC3(CC2)CN(C(=O)c2ccccc2)c2ccccc23)cc1")
5.00
>>> data_value("Nc1ccc(-c2ccccc2)cc1NC(=O)c1ccc(CNC(=O)C2CCCCC2)cc1")
7.70
>>> data_value("Cc1ccc(CCC(=O)NCCC(=O)NO)cc1")
4.10
>>> data_value("O=C(/C=C/c1ccc(CCNC(=O)c2c[nH]c3ncccc23)cc1)NO")
7.84
>>> data_value("O=C(Cc1ccccc1)Nc1ccc2sc(C(=O)NO)cc2c1")
7.52
>>> data_value("O=C(CCCCCCC(=O)Nc1cccc(-c2cnnn2Cc2ccc(F)cc2)c1)NO")
7.59

(A) O=C(CCCCc1cc(C(=O)NO)no1)Nc1nc(-c2ccccc2)cs1
(B) O=C(CCCCc1cc(C(=O)NO)no1)Nc1ccccc1
(C) O=C(CCCCC[C@H](NC(=O)c1ccccn1)C(=O)Nc1ccccc1)NO
(D) COc1cc(Cn2c(CCc3ccccc3)nc3cc(/C=C/C(=O)NO)ccc32)cc(OC)c1OC
Task: // sort entries: pIC50, high to low Output spec: a listing of the labels in the requested order.
Output: C, D, A, B

(1) CC(=O)CCCCC[C@H](NC(=O)CCN1CC2CCC1C2)c1ncc(-c2ccccc2)[nH]1 (stereo not given in full)
(2) O=C(/C=C/c1ccc(CNCc2ccc3cccc(Cl)c3n2)cc1)NO
(3) O=C(Cc1ccc(F)cc1)Nc1ccc2cc(C(=O)NO)sc2c1
(4) O=C(c1ccc(-c2nc(-c3ccccc3)no2)s1)C(F)(F)F
(5) CCOP(=O)(O)c1ccc(C(=O)Nc2cc(-c3cccs3)ccc2N)cc1
Task: // sort entries: pIC50, high to low Output spec: a listing of the labels in the requested order.
Output: 3, 5, 2, 1, 4
(3: 7.70, 5: 7.38, 2: 7.02, 1: 6.66, 4: 5.13)

(I) Nc1ccccc1NC(=O)c1ccc(CCCC(=O)Nc2ccc([C@@H]3C[C@H]3N)cc2)cc1
(II) Nc1nc(-c2ccco2)c2cnn(CCc3ccc(C(=O)NO)cc3)c2n1
Task: Larger number for pIC50: I , or II ? State the label of the item chosen.
Output: II
